- System: human red blood cells (hRBC)
- Type: cell-based
- Condition summary: red cells of human, 1 h, 200 μg/mL
- Protocol: Lyophilized peptides were weighed on a Microbalance (Mettler MT5) and dissolved in sterile water to a final concentration of 1 mg/mL. Stock solutions were kept at +4° C., light protected. […] A value of 0% and 100% cell lyses, respectively, was determined by incubation of hRBC in the presence of PBS and 2.5% Triton X-100 in H2O, respectively. The samples were centrifuged, the supernatants were 8-fold diluted in PBS buffer and the optical densities (OD) were measured at 540 nm. […]
Where a SMILES comes first, the peptide text is derived from it. Bridges are numbered along the chain shown (N, C = ends). [ ]: non-standard residue; d: D form. Hyp = O=C(O)[C@@H]1C[C@@H](O)CN1; Pen = CC(C)(S)[C@H](N)C(=O)O; dDab = NCC[C@@H](N)C(=O)O; Dab = NCC[C@H](N)C(=O)O
Assay metric: Hemolysis at 0.2 g/L

Query string: Kindly indicate its recorded Hemolysis at 0.2 g/L. Item: CC[C@H](C)[C@H](NC(=O)[C@@H]1C[C@@H](O)CN1C(=O)[C@@H](N)C(C)C)C(=O)N[C@H]1CSSC(C)(C)[C@@H](C(=O)N[C@@H](Cc2ccc(O)cc2)C(=O)O)NC(=O)[C@H](CCN)NC(=O)[C@H](CCN)NC(=O)[C@H](CCCCN)NC(=O)[C@@H](CCN)NC(=O)[C@H]([C@@H](C)O)NC(=O)[C@H](CCN)NC(=O)[C@H](CCCNC(=N)N)NC(=O)[C@H](CC(N)=O)NC(=O)[C@H](CO)NC(=O)[C@H](Cc2ccc(O)cc2)NC1=O [Example 12] (H-V[Hyp]ICYSNR[Dab]T[dDab]K[Dab][Dab][Pen]Y-OH; disulfide 4-15)
Result string: <1%

Query string: Kindly indicate its recorded Hemolysis at 0.2 g/L. Item: CC[C@H](C)[C@H](NC(=O)[C@@H]1C[C@@H](O)CN1C(=O)[C@@H](N)C(C)C)C(=O)N[C@@H]1C(=O)N[C@@H](Cc2ccc(O)cc2)C(=O)N[C@@H](CCN)C(=O)N[C@@H](CC(N)=O)C(=O)N[C@@H](CCCNC(=N)N)C(=O)N[C@@H](CCN)C(=O)N[C@@H]([C@@H](C)O)C(=O)N[C@H](CCN)C(=O)N[C@@H](CCCCN)C(=O)N[C@@H](CO)C(=O)N[C@@H](CO)C(=O)N[C@H](C(=O)N[C@@H](Cc2ccc(O)cc2)C(=O)O)CSSC1(C)C [Example 48] (H-V[Hyp]I[Pen]Y[Dab]NR[Dab]T[dDab]KSSCY-OH; disulfide 4-15)
Result string: <1%

Query string: Kindly indicate its recorded Hemolysis at 0.2 g/L. Item: CC[C@H](C)[C@H](NC(=O)[C@@H]1C[C@@H](O)CN1C(=O)[C@@H](N)C(C)C)C(=O)N[C@@H]1C(=O)N[C@@H](CO)C(=O)N[C@@H](CO)C(=O)N[C@@H](CC(N)=O)C(=O)N[C@@H](CCCNC(=N)N)C(=O)N[C@@H](CCN)C(=O)N[C@@H]([C@@H](C)O)C(=O)N[C@H](CCN)C(=O)N[C@@H](CCCCN)C(=O)N[C@@H](CCN)C(=O)N[C@@H](CCN)C(=O)N[C@H](C(=O)N[C@@H](Cc2ccc(O)cc2)C(=O)O)CSSC1(C)C [Example 14] (H-V[Hyp]I[Pen]SSNR[Dab]T[dDab]K[Dab][Dab]CY-OH; disulfide 4-15)
Result string: <1%
